Cited source for all entries: paper PMC8222333

molecular target: d-enCas12a-Ultra (Acidaminococcus sp., UniProt U2UMQ6 1-1307, E174R;S542R;K548R;M537R;F870L;D908A;E993A;D1235A); test: Spec-seq (native PAGE EMSA with sequencing of bound and unbound); 25 mM Tris-HCl pH 7.4, 150 mM KCl, 5 mM MgCl2, 10% glycerol, 1 mM DTT, 40 ng/uL salmon sperm DNA; 400 nM Cas12a, 480 nM crRNA, 50 nM library, 37 C 1 h; native PAGE at room temperature; high values mean tight binding; conditions: protein: recombinant;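 further: relative affinity from the bound to unbound sequence frequency ratio in Spec-seq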
In this section, each of the binders is paired with its reported binding signal.

Binder	binding signal [lnKA]
CAAG (dsDNA) DNA 1: GCTATCTAGTGCTCAGTACGCACTGCAAGAGGAAACTTCTGGCAGGACCAGGTCATGAGATCGGAAGAGCACACGTCTGAACTCCAGTCA DNA 2: TGACTGGAGTTCAGACGTGTGCTCTTCCGATCTCATGACCTGGTCCTGCCAGAAGTTTCCTCTTGCAGTGCGTACTGAGCACTAGATAGC RNA: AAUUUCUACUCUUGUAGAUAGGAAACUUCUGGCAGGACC	-3.48
GCAC (dsDNA) DNA 1: GCTATCTAGTGCTCAGTACGCACTGGCACAGGAAACTTCTGGCAGGACCAGGTCATGAGATCGGAAGAGCACACGTCTGAACTCCAGTCA DNA 2: TGACTGGAGTTCAGACGTGTGCTCTTCCGATCTCATGACCTGGTCCTGCCAGAAGTTTCCTGTGCCAGTGCGTACTGAGCACTAGATAGC RNA: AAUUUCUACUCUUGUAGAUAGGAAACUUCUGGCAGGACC	-3.32
CCCA (dsDNA) DNA 1: GCTATCTAGTGCTCAGTACGCACTGCCCAAGGAAACTTCTGGCAGGACCAGGTCATGAGATCGGAAGAGCACACGTCTGAACTCCAGTCA DNA 2: TGACTGGAGTTCAGACGTGTGCTCTTCCGATCTCATGACCTGGTCCTGCCAGAAGTTTCCTTGGGCAGTGCGTACTGAGCACTAGATAGC RNA: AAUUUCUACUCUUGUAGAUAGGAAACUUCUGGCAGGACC	-0.7
